These measurements were taken from the Human Domainome abundance scans (Beltran et al. 2025).

B1: Neutrophil cytosol factor 2, residues 456 to 514; numbered along this chain, P19878 (parent)
chain: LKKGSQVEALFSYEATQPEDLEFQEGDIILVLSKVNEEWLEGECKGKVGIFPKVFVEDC

Variants of: B1
Test: abundance fitness (aPCA) (normalised: wild type 0, dead -1); higher = more abundant; growth selection in yeast, the domain comes from the species named
Conditions: Homo sapiens
readout: abundance fitness
Answers are plain numbers.

Solved cases (3 shown):
• V35S = -0.459
• F51C = -0.247
• K3F = -0.153

Each variant below has a reported value. Please supply its abundance fitness.
1. F23V
2. E22W
3. N36T
4. L10E
5. C44K
6. P18T
7. G49E

A)
[-0.568, -0.787, -0.867, -0.667, -0.574, -0.599, -0.63]

I have 7 variants here; please give me abundance fitness for each one.
1. Q17I
2. N36A
3. P18N
4. N36V
5. G46A
6. E57W
7. L30M

A)
1. -0.393
2. -0.063
3. -0.074
4. -0.686
5. -0.313
6. -0.033
7. 0.08

Would you mind listing abundance fitness for each of the following variants?
1. D20K
2. T16D
3. L1M
4. W39N
5. K53A
6. V48G

A)
-0.683
-0.428
0.035
-0.196
-0.246
-0.387
